Recorded values, source patent US20230135093A1.

TARGET: h-GABA-A α5β3γ2 (Homo sapiens, UniProt P18507+P31644)
Construct: expressed in transfected cells; host or cells: Xenopus laevis oocytes, micro-injected with subunit RNA
Sequence (P31644 32-462): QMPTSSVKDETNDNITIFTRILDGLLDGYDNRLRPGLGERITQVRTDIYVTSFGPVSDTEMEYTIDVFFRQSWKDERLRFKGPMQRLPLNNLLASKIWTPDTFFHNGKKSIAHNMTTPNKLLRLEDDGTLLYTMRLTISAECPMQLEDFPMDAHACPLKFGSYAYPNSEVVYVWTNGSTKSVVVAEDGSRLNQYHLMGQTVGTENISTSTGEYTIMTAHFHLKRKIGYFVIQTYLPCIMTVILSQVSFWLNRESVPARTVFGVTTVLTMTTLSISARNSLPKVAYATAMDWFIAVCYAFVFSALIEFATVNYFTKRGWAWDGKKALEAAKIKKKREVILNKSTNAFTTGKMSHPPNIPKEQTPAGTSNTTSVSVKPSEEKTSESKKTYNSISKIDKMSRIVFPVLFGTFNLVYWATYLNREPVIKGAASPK
Sequence (P28472 26-473 partner): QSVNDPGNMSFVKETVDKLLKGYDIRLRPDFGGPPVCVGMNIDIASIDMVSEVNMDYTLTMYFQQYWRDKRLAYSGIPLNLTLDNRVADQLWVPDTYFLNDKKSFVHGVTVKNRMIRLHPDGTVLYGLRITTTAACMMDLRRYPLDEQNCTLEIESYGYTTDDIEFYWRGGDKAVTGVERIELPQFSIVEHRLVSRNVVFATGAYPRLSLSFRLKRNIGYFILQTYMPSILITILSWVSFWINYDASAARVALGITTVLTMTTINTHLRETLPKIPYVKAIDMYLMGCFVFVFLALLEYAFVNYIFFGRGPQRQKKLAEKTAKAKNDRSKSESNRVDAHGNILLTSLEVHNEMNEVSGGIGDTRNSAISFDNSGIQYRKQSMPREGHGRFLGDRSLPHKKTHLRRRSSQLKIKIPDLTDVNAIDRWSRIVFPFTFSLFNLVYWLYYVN
Sequence (P18507 40-475): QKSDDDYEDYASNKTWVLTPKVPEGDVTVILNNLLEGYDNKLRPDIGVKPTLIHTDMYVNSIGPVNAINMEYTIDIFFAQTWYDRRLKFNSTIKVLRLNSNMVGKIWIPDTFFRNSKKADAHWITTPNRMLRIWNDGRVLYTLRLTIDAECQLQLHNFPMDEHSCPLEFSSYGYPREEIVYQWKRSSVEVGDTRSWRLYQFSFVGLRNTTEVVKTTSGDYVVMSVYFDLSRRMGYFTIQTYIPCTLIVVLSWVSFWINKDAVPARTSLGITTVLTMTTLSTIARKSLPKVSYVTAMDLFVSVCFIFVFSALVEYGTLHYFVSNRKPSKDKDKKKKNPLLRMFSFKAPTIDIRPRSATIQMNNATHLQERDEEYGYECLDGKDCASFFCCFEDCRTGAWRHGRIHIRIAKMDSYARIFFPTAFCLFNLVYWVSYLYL
ASSAY_NOTES: Two-electrode voltage clamp electrophysiology in Xenopus oocytes expressing GABAA receptors (modulation of GABA EC20 current)
Type: cell-based
CONDITION_INFO: Table 1; % modulation of GABA EC20 = 100*(Fold increase-1)
Efficacy (GABA) % of 80% or higher: satisfied. Under 80%: not satisfied.

SMILES_NOTATION	LABEL_VALUE
Cn1nnc(-c2ccc(Cl)cc2F)c1Cn1ncc(N2CC(Oc3cnccn3)C2)cc1=O	satisfied
CCOC1CN(c2cnn(Cc3c(-c4ccc(C(F)(F)F)cc4F)nnn3C)c(=O)c2)C1	not satisfied
CC(C)O[C@@H]1CCN(c2cnn(Cc3c(-c4ccc(Cl)cc4F)nnn3C)c(=O)c2)C1	not satisfied
Cc1ccc(-c2nnn(C)c2Cn2ncc(N3CCCC3)cc2=O)cn1	satisfied
Cn1nnc(-c2ccc(C(F)(F)F)cc2F)c1Cn1ncc(N2CC(OC(F)F)C2)cc1=O	not satisfied
Cc1ccc(-c2nnn(C)c2Cn2ncc(N3CCOC(C)(C)C3)cc2=O)cn1	not satisfied
Cn1nnc(-c2ccc(Cl)cc2F)c1Cn1ncc(N2CC(Oc3ccc(Cl)cn3)C2)cc1=O	not satisfied
